Source listed as BigSolDB 2.1.

conditions: in isopropanol, 308.15 K
recorded_metric: solubility (mole fraction)
Respond with the number and no other words.

Prompt: Quick check: solubility (mole fraction) of Clc1cc(Cl)cc(Cl)c1 ?
Completion: 0.0969

====

settings: in ethyl acetate, 305.65 K
recorded_metric: solubility (mole fraction)
Respond with the number and no other words.

Prompt: Quick check: solubility (mole fraction) of Clc1cc(Cl)cc(Cl)c1 ?
Completion: 0.298

====

conditions: in n-butanol, 285.65 K
recorded_metric: solubility (mole fraction)

Prompt: Quick check: solubility (mole fraction) of Clc1cc(Cl)cc(Cl)c1 ?
Completion: 0.0679

====

conditions: in isopropanol, 298.15 K
recorded_metric: solubility (mole fraction)
Respond with the number and no other words.

Prompt: Quick check: solubility (mole fraction) of Clc1cc(Cl)cc(Cl)c1 ?
Completion: 0.058

====

conditions: in ethyl acetate, 275.65 K
recorded_metric: solubility (mole fraction)
Respond with the number and no other words.

Prompt: Quick check: solubility (mole fraction) of Clc1cc(Cl)cc(Cl)c1 ?
Completion: 0.102

====

conditions: in isobutanol, 290.65 K
recorded_metric: solubility (mole fraction)
Respond with the number and no other words.

Prompt: Quick check: solubility (mole fraction) of Clc1cc(Cl)cc(Cl)c1 ?
Completion: 0.0616

====

settings: in toluene, 278.15 K
recorded_metric: solubility (mole fraction)
Respond with the number and no other words.

Prompt: Quick check: solubility (mole fraction) of Clc1cc(Cl)cc(Cl)c1 ?
Completion: 0.199

====

details: in n-propanol, 283.15 K
recorded_metric: solubility (mole fraction)
Respond with the number and no other words.

Prompt: Quick check: solubility (mole fraction) of Clc1cc(Cl)cc(Cl)c1 ?
Completion: 0.0359

====

conditions: in toluene, 273.15 K
recorded_metric: solubility (mole fraction)
Respond with the number and no other words.

Prompt: Quick check: solubility (mole fraction) of Clc1cc(Cl)cc(Cl)c1 ?
Completion: 0.169

====

settings: in toluene, 290.65 K
recorded_metric: solubility (mole fraction)
Respond with the number and no other words.

Prompt: Quick check: solubility (mole fraction) of Clc1cc(Cl)cc(Cl)c1 ?
Completion: 0.311

====

conditions: in toluene, 300.65 K
recorded_metric: solubility (mole fraction)
Respond with the number and no other words.

Prompt: Quick check: solubility (mole fraction) of Clc1cc(Cl)cc(Cl)c1 ?
Completion: 0.427

====

conditions: in acetone, 298.15 K
recorded_metric: solubility (mole fraction)

Prompt: Quick check: solubility (mole fraction) of Clc1cc(Cl)cc(Cl)c1 ?
Completion: 0.116

====

conditions: in isobutanol, 283.15 K
recorded_metric: solubility (mole fraction)
Respond with the number and no other words.

Prompt: Quick check: solubility (mole fraction) of Clc1cc(Cl)cc(Cl)c1 ?
Completion: 0.042

====

conditions: in n-propanol, 273.15 K
recorded_metric: solubility (mole fraction)
Respond with the number and no other words.

Prompt: Quick check: solubility (mole fraction) of Clc1cc(Cl)cc(Cl)c1 ?
Completion: 0.0211

====

conditions: in toluene, 308.15 K
recorded_metric: solubility (mole fraction)
Respond with the number and no other words.

Prompt: Quick check: solubility (mole fraction) of Clc1cc(Cl)cc(Cl)c1 ?
Completion: 0.539

====

settings: in toluene, 293.15 K
recorded_metric: solubility (mole fraction)
Respond with the number and no other words.

Prompt: Quick check: solubility (mole fraction) of Clc1cc(Cl)cc(Cl)c1 ?
Completion: 0.337

====

details: in isopropanol, 288.15 K
recorded_metric: solubility (mole fraction)
Respond with the number and no other words.

Prompt: Quick check: solubility (mole fraction) of Clc1cc(Cl)cc(Cl)c1 ?
Completion: 0.0339

====

settings: in cyclohexane, 293.15 K
recorded_metric: solubility (mole fraction)
Respond with the number and no other words.

Prompt: Quick check: solubility (mole fraction) of Clc1cc(Cl)cc(Cl)c1 ?
Completion: 0.231

====

settings: in cyclohexane, 305.65 K
recorded_metric: solubility (mole fraction)
Respond with the number and no other words.

Prompt: Quick check: solubility (mole fraction) of Clc1cc(Cl)cc(Cl)c1 ?
Completion: 0.391

====

conditions: in isopropanol, 310.65 K
recorded_metric: solubility (mole fraction)
Respond with the number and no other words.

Prompt: Quick check: solubility (mole fraction) of Clc1cc(Cl)cc(Cl)c1 ?
Completion: 0.11

====

conditions: in isopropanol, 300.65 K
recorded_metric: solubility (mole fraction)
Respond with the number and no other words.

Prompt: Quick check: solubility (mole fraction) of Clc1cc(Cl)cc(Cl)c1 ?
Completion: 0.0649

====

conditions: in n-propanol, 293.15 K
recorded_metric: solubility (mole fraction)
Respond with the number and no other words.

Prompt: Quick check: solubility (mole fraction) of Clc1cc(Cl)cc(Cl)c1 ?
Completion: 0.0598

====

conditions: in acetone, 275.65 K
recorded_metric: solubility (mole fraction)
Respond with the number and no other words.

Prompt: Quick check: solubility (mole fraction) of Clc1cc(Cl)cc(Cl)c1 ?
Completion: 0.0472

====

details: in n-propanol, 295.65 K
recorded_metric: solubility (mole fraction)

Prompt: Quick check: solubility (mole fraction) of Clc1cc(Cl)cc(Cl)c1 ?
Completion: 0.0677

====

conditions: in n-propanol, 290.65 K
recorded_metric: solubility (mole fraction)
Respond with the number and no other words.

Prompt: Quick check: solubility (mole fraction) of Clc1cc(Cl)cc(Cl)c1 ?
Completion: 0.0532

====

conditions: in cyclohexane, 308.15 K
recorded_metric: solubility (mole fraction)

Prompt: Quick check: solubility (mole fraction) of Clc1cc(Cl)cc(Cl)c1 ?
Completion: 0.434

====

conditions: in acetone, 313.15 K
recorded_metric: solubility (mole fraction)
Respond with the number and no other words.

Prompt: Quick check: solubility (mole fraction) of Clc1cc(Cl)cc(Cl)c1 ?
Completion: 0.213

====

details: in acetone, 310.65 K
recorded_metric: solubility (mole fraction)

Prompt: Quick check: solubility (mole fraction) of Clc1cc(Cl)cc(Cl)c1 ?
Completion: 0.192

====

conditions: in isopropanol, 293.15 K
recorded_metric: solubility (mole fraction)
Respond with the number and no other words.

Prompt: Quick check: solubility (mole fraction) of Clc1cc(Cl)cc(Cl)c1 ?
Completion: 0.0441

====

details: in cyclohexane, 300.65 K
recorded_metric: solubility (mole fraction)
Respond with the number and no other words.

Prompt: Quick check: solubility (mole fraction) of Clc1cc(Cl)cc(Cl)c1 ?
Completion: 0.318

====

settings: in ethyl acetate, 298.15 K
recorded_metric: solubility (mole fraction)
Respond with the number and no other words.

Prompt: Quick check: solubility (mole fraction) of Clc1cc(Cl)cc(Cl)c1 ?
Completion: 0.234

====

conditions: in n-butanol, 305.65 K
recorded_metric: solubility (mole fraction)
Respond with the number and no other words.

Prompt: Quick check: solubility (mole fraction) of Clc1cc(Cl)cc(Cl)c1 ?
Completion: 0.166

====

conditions: in ethyl acetate, 303.15 K
recorded_metric: solubility (mole fraction)
Respond with the number and no other words.

Prompt: Quick check: solubility (mole fraction) of Clc1cc(Cl)cc(Cl)c1 ?
Completion: 0.274

====

settings: in cyclohexane, 298.15 K
recorded_metric: solubility (mole fraction)
Respond with the number and no other words.

Prompt: Quick check: solubility (mole fraction) of Clc1cc(Cl)cc(Cl)c1 ?
Completion: 0.286

====

conditions: in cyclohexane, 280.65 K
recorded_metric: solubility (mole fraction)
Respond with the number and no other words.

Prompt: Quick check: solubility (mole fraction) of Clc1cc(Cl)cc(Cl)c1 ?
Completion: 0.131

====

conditions: in toluene, 280.65 K
recorded_metric: solubility (mole fraction)
Respond with the number and no other words.

Prompt: Quick check: solubility (mole fraction) of Clc1cc(Cl)cc(Cl)c1 ?
Completion: 0.218

====

details: in toluene, 305.65 K
recorded_metric: solubility (mole fraction)
Respond with the number and no other words.

Prompt: Quick check: solubility (mole fraction) of Clc1cc(Cl)cc(Cl)c1 ?
Completion: 0.5

====

conditions: in n-propanol, 275.65 K
recorded_metric: solubility (mole fraction)
Respond with the number and no other words.

Prompt: Quick check: solubility (mole fraction) of Clc1cc(Cl)cc(Cl)c1 ?
Completion: 0.0238

====

conditions: in isobutanol, 298.15 K
recorded_metric: solubility (mole fraction)
Respond with the number and no other words.

Prompt: Quick check: solubility (mole fraction) of Clc1cc(Cl)cc(Cl)c1 ?
Completion: 0.091

====

details: in n-butanol, 275.65 K
recorded_metric: solubility (mole fraction)
Respond with the number and no other words.

Prompt: Quick check: solubility (mole fraction) of Clc1cc(Cl)cc(Cl)c1 ?
Completion: 0.0406

====

conditions: in acetone, 303.15 K
recorded_metric: solubility (mole fraction)
Respond with the number and no other words.

Prompt: Quick check: solubility (mole fraction) of Clc1cc(Cl)cc(Cl)c1 ?
Completion: 0.14

====

conditions: in isobutanol, 278.15 K
recorded_metric: solubility (mole fraction)
Respond with the number and no other words.

Prompt: Quick check: solubility (mole fraction) of Clc1cc(Cl)cc(Cl)c1 ?
Completion: 0.0321
